Biological target: IRAK4 (Homo sapiens (Human))
Sequence (Q9NWZ3 whole entry): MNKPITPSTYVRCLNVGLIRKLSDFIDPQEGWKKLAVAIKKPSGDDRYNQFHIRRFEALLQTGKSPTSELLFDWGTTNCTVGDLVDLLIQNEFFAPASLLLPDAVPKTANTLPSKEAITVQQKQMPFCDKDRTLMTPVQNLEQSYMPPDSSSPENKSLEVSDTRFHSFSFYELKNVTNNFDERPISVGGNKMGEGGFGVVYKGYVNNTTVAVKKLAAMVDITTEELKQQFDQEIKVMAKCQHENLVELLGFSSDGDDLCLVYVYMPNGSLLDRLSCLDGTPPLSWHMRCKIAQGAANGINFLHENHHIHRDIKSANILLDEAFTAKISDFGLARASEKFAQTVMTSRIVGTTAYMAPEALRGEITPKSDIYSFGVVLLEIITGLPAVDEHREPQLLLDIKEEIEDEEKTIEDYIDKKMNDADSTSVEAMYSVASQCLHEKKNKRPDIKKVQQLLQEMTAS
Experiment: IRAK4 MSD degradation in OCI-LY10
Assay type: cell-based
Conditions: OCI-LY10, 4 hrs, MSD; read-out: IRAK4 MSD degradation in OCI-LY10 at 4 hrs: Average external-Abs DC50
Experimental: Degradation of IRAK4 in OCI-LY10 was quantitatively measured using Meso Scale Discovery technology. […] Compounds were then added to the assay plates with a final top concentration of 1 to 10 μM in a 1:3 dilution series with total of 8 doses. […] The assay plates were then incubated at room temperature for 1 hour, washed 3 times with 150 μL/well TB ST buffer, and 150 μL/well MSD reading buffer (Meso Scale Discovery catalog number R92TC-2) was added. […]
Attribute: DC50

| molecule | DC50 |
| --- | --- |
| O=C1CCC(n2c3ccc(CCCN4CC5(CCN(C(=O)[C@H]6CC[C@H](n7cc(NC(=O)c8cnn9ccc(N%10C[C@H]%11C[C@@H]%10CO%11)nc89)c(C(F)F)n7)CC6)CC5)C4)cc3c3cccnc32)C(=O)N1 (some centres unmarked) | 10 to 100 nM |
| CN(CCCc1cccc2c1n(C)c(=O)n2C1CCC(=O)NC1=O)C[C@H]1CC[C@H](n2cc(NC(=O)c3coc(-c4ccnc(NCC5CC5)c4)n3)c(C(F)F)n2)CC1 (some centres unmarked) | < 10 nM |
| O=C1CCC(N2Cc3c(OCc4ccc(CN5CCN(C[C@H]6CC[C@H](n7cc(NC(=O)c8coc(-c9ccnc(NCC%10CC%10)c9)n8)c(C(F)F)n7)CC6)CC5)cc4)cccc3C2=O)C(=O)N1 (some centres unmarked) | > 1000 nM |
| O=C1CCC(N2C(=O)c3cccc(N4CCC(CCCN5CCC(n6cc(NC(=O)c7cnn8ccc(N9CCOCC9)nc78)c(C(F)F)n6)CC5)CC4)c3C2=O)C(=O)N1 (centres unmarked) | > 1000 nM |
| NC[C@H]1CC[C@H](n2cc(NC(=O)c3cnn4ccc(N5CCOCC5)nc34)c(C(F)F)n2)CC1 | > 1000 nM |

====

Target: UniProt:Q9NWZ3
Test: hPBMC IRAK4 degradation flow assay
Type: cell-based
Conditions: hPBMC monocyte, 20 hr, flow assay; read-out: IRAK4 degradation in hPBMC monocyte at 20 hr: Average external Abs DC50
observedProperty: DC50

| compound | val |
| --- | --- |
| Cn1c(=O)n(C2CCC(=O)NC2=O)c2cccc(CCC(=O)N3CC4(CCN(C[C@H]5CC[C@H](n6cc(NC(=O)c7cnn8ccc(N9C[C@H]%10C[C@@H]9CO%10)nc78)c(C(F)F)n6)CC5)CC4)C3)c21 (stereo partly shown) | < 0.01 µM |
| Cn1c(=O)n(C2CCC(=O)NC2=O)c2cccc(CCCN3CCOC4(CCN(C(=O)[C@H]5CC[C@H](n6cc(NC(=O)c7cnn8ccc(N9C[C@H]%10C[C@@H]9CO%10)nc78)c(C(F)F)n6)CC5)CC4)C3)c21 (stereo partly shown) | < 0.01 µM |
| Cn1c(=O)n(C2CCC(=O)NC2=O)c2cccc(CCCCC3CCN(Cc4ccc(-n5cc(NC(=O)c6cnn7ccc(N8C[C@H]9C[C@@H]8CO9)nc67)c(C(F)F)n5)cc4)CC3)c21 (stereo partly shown) | 0.1 to 1 µM |
| Cn1c(=O)n(C2CCC(=O)NC2=O)c2cccc(CCCN3CCC4(CC3)CN(C(=O)[C@H]3CC[C@H](n5cc(NC(=O)c6cnn7ccc(N8C[C@H]9C[C@@H]8CO9)nc67)c(C(F)F)n5)CC3)C4)c21 (stereo partly shown) | < 0.01 µM |
| Cn1c(=O)n(C2CCC(=O)NC2=O)c2cccc(CC(=O)N3CC4(CCN(C[C@H]5CC[C@H](n6cc(NC(=O)c7cnn8ccc(N9C[C@H]%10C[C@@H]9CO%10)nc78)c(C(F)F)n6)CC5)CC4)C3)c21 (stereo partly shown) | < 0.01 µM |
| CN(C[C@@H]1CN(Cc2cccc3c2n(C)c(=O)n3C2CCC(=O)NC2=O)CCO1)C[C@H]1CC[C@H](n2cc(NC(=O)c3cnn4ccc(N5C[C@H]6C[C@@H]5CO6)nc34)c(C(F)F)n2)CC1 (stereo partly shown) | 0.01 to 0.1 µM |
| Cn1c(=O)n(C2CCC(=O)NC2=O)c2cccc(CC3CC4(CCN(C(=O)c5ccc(-n6cc(NC(=O)c7cnn8ccc(N9C[C@H]%10C[C@@H]9CO%10)nc78)c(C(F)F)n6)cc5)CC4)C3)c21 (stereo partly shown) | < 0.01 µM |
| Cn1c(=O)n(C2CCC(=O)NC2=O)c2cccc(C(=O)N3CCC(OC[C@H]4CC[C@H](n5cc(NC(=O)c6cnn7ccc(N8C[C@H]9C[C@@H]8CO9)nc67)c(C(F)F)n5)CC4)CC3)c21 (stereo partly shown) | 0.1 to 1 µM |
| CN(CCCOCCCc1cccc2c1n(C)c(=O)n2C1CCC(=O)NC1=O)C[C@H]1CC[C@H](n2cc(NC(=O)c3cnn4ccc(N5CCCCC5)nc34)c(C(F)F)n2)CC1 (stereo partly shown) | < 0.01 µM |
| Cn1c(=O)n(C2CCC(=O)NC2=O)c2cccc(CCC(=O)C3CC4(CCN(C[C@H]5CC[C@H](n6cc(NC(=O)c7cnn8ccc(N9C[C@H]%10C[C@@H]9CO%10)nc78)c(C(F)F)n6)CC5)CC4)C3)c21 (stereo partly shown) | < 0.01 µM |

Reference source: patent US11352350B2
